B1: H2-Kb / Ed31 (parent complex)
chain 1: GQQVQQSPASLVLQEGENAELQCNFSTSLNSMQWFYQRPGGSLVSLFYNPSGTKHSGRLTSTTVIKERRSSLHISSSQTTDSGTYLCALEGNYAQGLTFGLGTRVSVFP
chain 2: ETAVFQTPNYHVTQVGNEVSFNCKQTLGHDTMYWYKQDSKKLLKIMFSYNNKQLIVNETVPRRFSPQSSDKAHLNLRIKSVEPEDSAVYLCASRSAGEQYFGPGTRLTVL
chain 3: not shown
chain 4: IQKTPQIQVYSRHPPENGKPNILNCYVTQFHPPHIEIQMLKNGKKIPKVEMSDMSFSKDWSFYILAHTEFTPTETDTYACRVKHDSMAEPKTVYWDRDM
chain 5: SIINFEKL

- Variants of: B1
- METHOD SUMMARY: % of reporter cells activated (NFAT-GFP), raw; further: test concentration or dose not given here
MEASURED PROPERTY: ratio to parent

Name the reported ratio to parent value associated with the variant chain 5 L8I 0.968

Name the reported ratio to parent value associated with the variant chain 5 F5V 0.859

Name the reported ratio to parent value associated with the variant chain 5 K7C 0.747

Name the reported ratio to parent value associated with the variant chain 5 F5W 0.829

Name the reported ratio to parent value associated with the variant chain 5 N4I 0.484

Name the reported ratio to parent value associated with the variant chain 5 I3M 0.563

I: chain 5 N4R
II: chain 5 L8K
III: chain 5 K7H
IV: chain 5 K7F
V: chain 5 N4Q
List the 5 entries from lowest ratio to parent to highest ratio to parent value. Order the labels as requested and give them as your answer. IV, I, III, V, II
(IV: 0.0347, I: 0.0703, III: 0.323, V: 0.583, II: 0.854)

The origin of these recorded values is paper PMC11480844.
